B1: CPEB3 Ribozyme (parent)
chain: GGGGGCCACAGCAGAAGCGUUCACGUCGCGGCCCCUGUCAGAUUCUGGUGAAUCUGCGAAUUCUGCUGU

- Variants of: B1
- methodNotes: self-cleavage, relative activity (ratio to wild type); higher = more cleavage; co-transcriptional
# self-cleavage listing for each entry below
Lab note: record the figure alone, no unit after it.

A42C C54U ... 0.822
G4C C32G ... 0.0983
G2A A16G ... 0.179

Short answer for C24U U49C : self-cleavage was 0.84

Short answer for A10G C33U : self-cleavage was 0.953

Short answer for C27G C39A : self-cleavage was 0.166

Short answer for G25U A42G : self-cleavage was 0.129

Short answer for U21C C27G : self-cleavage was 0.209

Short answer for G4C C57U : self-cleavage was 0.234

Short answer for G31C U53G : self-cleavage was 0.139

Short answer for G2C G47U : self-cleavage was 0.0378
